- subject.of.test: nNOS (Rattus norvegicus)
- Construct: purchased Cayman Chem
- assay.remarks: NOS activity assay, conversion of L-[14C(U)]-arginine to L-[14C(U)]-citrulline, recombinant nNOS
- Assay type: biochemical
- test.context: varying CaM; read-out: Kiʹ for the allosteric site (CaM-dependent nNOS activity)
observation.type: pKi
When answering, recall that pKi equals minus log10 of the concentration in mol/L, and write that number alone.

Prompt line: Recorded pKi for CC(C)CCC[C@@H](C)[C@H]1CC[C@H]2[C@H](CC=O)[C@@H]([C@@]3(C)CC[C@H](O)CC3=O)CC[C@]12C [secosterol-A, 3β-hydroxy-5-oxo-5,6-secocholestan-6-al] with nNOS (Rattus norvegicus), please?
Response line: 4.52

====

- subject.of.test: iNOS (Mus musculus)
- Construct: purchased Sigma Chem. (St. Louis, MO)
- assay.remarks: NOS activity assay, conversion of L-[14C(U)]-arginine to L-[14C(U)]-citrulline, recombinant iNOS
- Type: biochemical
- test.context: tested 1–100 µM, highest concentration 100 µM
observation.type: Effect on iNOS activity

Some solved entries appear below for comparison.
CC(C)CCC[C@@H](C)[C@H]1CC[C@H]2[C@@H]3C(=O)C=C4C[C@@H](O)CC[C@]4(C)[C@H]3CC[C@]12C [7-ketocholesterol, 3β-hydroxy-5-cholesten-7-one]: do not affect
CC(C)CCC[C@@H](C)[C@H]1CC[C@H]2[C@@H]3[C@@H](C=O)[C@]4(O)C[C@@H](O)CC[C@]4(C)[C@H]3CC[C@]12C: do not affect
CC(C)CCC[C@@H](C)[C@H]1CC[C@H]2[C@@H]3CC=C4C[C@@H](O)CC[C@]4(C)[C@H]3CC[C@]12C: do not affect
CC(C)CCC[C@@H](C)[C@H]1CC[C@H]2[C@@H]3C[C@H]4O[C@]45C[C@@H](O)CC[C@]5(C)[C@H]3CC[C@]12C: do not affect

Proceeding to the next molecule to report its Effect on iNOS activity.
Prompt line: Name the recorded Effect on iNOS activity for C[C@H](CCCC(C)(C)O)[C@H]1CC[C@H]2[C@@H]3CC=C4C[C@@H](O)CC[C@]4(C)[C@H]3CC[C@]12C [25-hydroxycholesterol] .
Response line: do not affect

====

- subject.of.test: nNOS (Rattus norvegicus)
- Construct: purchased Cayman Chem
- assay.remarks: NOS activity assay, conversion of L-[14C(U)]-arginine to L-[14C(U)]-citrulline, recombinant nNOS
- Format: biochemical
- test.context: varying L-arginine; read-out: Ki(app) for the catalytic site
observation.type: pKi
When answering, recall that pKi equals minus log10 of the concentration in mol/L, and write that number alone.

Prompt line: Name the recorded pKi for CC(C)CCC[C@@H](C)[C@H]1CC[C@H]2[C@H](CC=O)[C@@H]([C@@]3(C)CC[C@H](O)CC3=O)CC[C@]12C [secosterol-A, 3β-hydroxy-5-oxo-5,6-secocholestan-6-al] .
Response line: 5.00

====

- subject.of.test: eNOS (Bos taurus, UniProt P29473)
- Sequence (P29473 2-1205 limits assumed): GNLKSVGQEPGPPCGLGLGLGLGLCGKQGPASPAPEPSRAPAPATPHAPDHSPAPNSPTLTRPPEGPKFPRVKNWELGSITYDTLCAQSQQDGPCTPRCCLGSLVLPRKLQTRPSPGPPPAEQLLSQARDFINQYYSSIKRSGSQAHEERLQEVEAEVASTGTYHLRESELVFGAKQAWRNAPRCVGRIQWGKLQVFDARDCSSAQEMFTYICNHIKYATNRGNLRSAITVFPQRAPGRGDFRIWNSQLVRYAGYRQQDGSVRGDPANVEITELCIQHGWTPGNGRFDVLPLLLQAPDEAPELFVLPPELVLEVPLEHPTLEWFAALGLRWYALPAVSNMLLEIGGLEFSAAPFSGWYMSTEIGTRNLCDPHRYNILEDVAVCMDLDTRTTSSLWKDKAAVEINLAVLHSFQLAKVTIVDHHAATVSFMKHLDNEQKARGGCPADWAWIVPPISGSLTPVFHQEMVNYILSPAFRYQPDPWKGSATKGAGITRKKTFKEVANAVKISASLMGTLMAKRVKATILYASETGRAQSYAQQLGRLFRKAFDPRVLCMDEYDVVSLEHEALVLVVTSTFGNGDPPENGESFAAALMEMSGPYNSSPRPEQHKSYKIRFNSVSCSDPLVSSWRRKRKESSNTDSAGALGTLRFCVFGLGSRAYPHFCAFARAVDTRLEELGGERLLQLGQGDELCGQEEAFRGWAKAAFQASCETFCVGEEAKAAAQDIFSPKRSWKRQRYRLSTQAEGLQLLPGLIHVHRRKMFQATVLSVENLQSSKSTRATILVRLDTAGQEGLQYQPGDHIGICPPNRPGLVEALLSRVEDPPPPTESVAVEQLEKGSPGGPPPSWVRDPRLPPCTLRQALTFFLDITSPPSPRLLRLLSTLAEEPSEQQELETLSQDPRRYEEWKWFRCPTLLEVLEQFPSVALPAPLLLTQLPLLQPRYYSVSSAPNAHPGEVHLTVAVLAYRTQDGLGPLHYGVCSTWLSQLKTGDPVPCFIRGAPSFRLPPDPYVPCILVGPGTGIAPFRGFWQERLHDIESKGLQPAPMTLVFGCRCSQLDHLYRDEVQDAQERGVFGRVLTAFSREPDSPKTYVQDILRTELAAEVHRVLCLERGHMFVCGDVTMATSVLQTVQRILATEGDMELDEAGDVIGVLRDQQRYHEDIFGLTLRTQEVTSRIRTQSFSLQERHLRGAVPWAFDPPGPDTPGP
- assay.remarks: NOS activity assay, conversion of L-[14C(U)]-arginine to L-[14C(U)]-citrulline, recombinant eNOS
- test.context: varying L-arginine; read-out: Ki(app) for the catalytic site
observation.type: Ki (µM)
Give the quantity in µM, number only.

Prompt line: Name the recorded Ki for CC(C)CCC[C@@H](C)[C@H]1CC[C@H]2[C@H](CC=O)[C@@H]([C@@]3(C)CC[C@H](O)CC3=O)CC[C@]12C [secosterol-A, 3β-hydroxy-5-oxo-5,6-secocholestan-6-al] .
Response line: 50

====

- subject.of.test: nNOS (Rattus norvegicus, UniProt P29476)
- Construct: purchased Cayman Chem
- Sequence (P29476 whole entry): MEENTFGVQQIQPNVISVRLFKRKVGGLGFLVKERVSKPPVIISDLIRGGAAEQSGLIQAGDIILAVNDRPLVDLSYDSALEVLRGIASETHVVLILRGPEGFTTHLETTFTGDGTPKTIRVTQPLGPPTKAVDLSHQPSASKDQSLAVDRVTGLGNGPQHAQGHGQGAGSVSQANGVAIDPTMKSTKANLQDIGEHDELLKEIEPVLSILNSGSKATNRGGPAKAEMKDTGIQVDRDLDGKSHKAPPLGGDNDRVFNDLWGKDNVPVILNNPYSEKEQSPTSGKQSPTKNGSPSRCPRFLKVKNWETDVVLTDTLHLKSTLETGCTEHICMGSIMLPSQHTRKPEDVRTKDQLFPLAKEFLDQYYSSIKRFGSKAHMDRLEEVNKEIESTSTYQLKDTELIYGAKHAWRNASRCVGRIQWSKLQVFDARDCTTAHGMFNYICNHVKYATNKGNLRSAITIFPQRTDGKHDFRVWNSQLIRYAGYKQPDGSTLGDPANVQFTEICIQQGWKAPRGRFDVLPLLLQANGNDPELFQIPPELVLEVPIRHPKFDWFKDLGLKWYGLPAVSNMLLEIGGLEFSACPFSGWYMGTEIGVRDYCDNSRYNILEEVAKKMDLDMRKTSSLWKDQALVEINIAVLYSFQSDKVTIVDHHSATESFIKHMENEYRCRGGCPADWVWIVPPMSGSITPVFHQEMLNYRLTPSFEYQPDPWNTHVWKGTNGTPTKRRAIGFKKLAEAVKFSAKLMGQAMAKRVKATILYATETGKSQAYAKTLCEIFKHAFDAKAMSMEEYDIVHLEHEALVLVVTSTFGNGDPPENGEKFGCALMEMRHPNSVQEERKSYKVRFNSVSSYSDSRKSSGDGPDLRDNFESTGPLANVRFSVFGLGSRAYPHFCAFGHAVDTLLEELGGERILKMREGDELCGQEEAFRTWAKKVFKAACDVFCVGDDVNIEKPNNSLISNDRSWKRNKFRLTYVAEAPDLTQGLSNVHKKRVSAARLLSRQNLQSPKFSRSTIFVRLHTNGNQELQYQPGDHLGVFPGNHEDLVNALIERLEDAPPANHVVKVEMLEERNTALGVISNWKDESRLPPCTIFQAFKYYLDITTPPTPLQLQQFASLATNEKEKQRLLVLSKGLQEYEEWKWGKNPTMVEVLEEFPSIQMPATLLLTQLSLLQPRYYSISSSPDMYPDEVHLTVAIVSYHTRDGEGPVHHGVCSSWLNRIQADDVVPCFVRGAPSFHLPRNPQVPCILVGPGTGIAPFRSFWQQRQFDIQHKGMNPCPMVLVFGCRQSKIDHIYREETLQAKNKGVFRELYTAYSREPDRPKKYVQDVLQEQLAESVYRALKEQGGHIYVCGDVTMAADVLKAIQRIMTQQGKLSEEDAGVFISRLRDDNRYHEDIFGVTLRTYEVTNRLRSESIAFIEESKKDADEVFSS
- assay.remarks: NOS activity assay, conversion of L-[14C(U)]-arginine to L-[14C(U)]-citrulline, recombinant nNOS
- Type: biochemical
- test.context: recombinant rat nNOS, 50 µM L-arginine, 30 min at 37°C
observation.type: pIC50
When answering, recall that pIC50 equals minus log10 of the concentration in mol/L, and write that number alone.

Prompt line: Name the recorded pIC50 for CC(C)CCC[C@@H](C)[C@H]1CC[C@H]2[C@H](CC=O)[C@@H]([C@@]3(C)CC[C@H](O)CC3=O)CC[C@]12C [secosterol-A, 3β-hydroxy-5-oxo-5,6-secocholestan-6-al] .
Response line: 4.66
